Measured values drawn from PubChem BioAssay (NCI) for this set.

- Tested on: SR leukemia
- experiment-description: NCI-60 one-dose screen, 48 h
- condition-parameters: 10 µM unless noted
- Description: Growth inhibition of the SR human tumor cell line is measured as a screen for anti-cancer activity. Cells are grown in 96 well plates and exposed to the test compound for 48 hours. Compounds are tested at a single concentration, which is 10^-5 M for most compounds. The reported endpoint is percent growth (GI% or GIPRCNT), where numbers from 0 - 100% represent growth inhibition, and numbers from -100% - 0 represent cell death. For example, a value of 40 represents 60% growth inhibition. […]
Compounds without any hit were thinned out: in the full panel of roughly 83,000, 20% have a hit. Activity calls are given as the source filed them. The calls were made as follows: active = growth percent below 10; inactive = the rest.
Your answer must be one of the following: t = active, f = inactive

Lookup: What classification did O=S(=O)(CC(O)(c1ccccc1)c1ccccc1)CC(O)(c1ccccc1)c1ccccc1 end up with in this test?
Found: f

Lookup: Hi team, can someone confirm the assay call for Cc1ccc(S(=O)(=O)/C(=C\c2ccc(Cl)cc2)C(=O)c2ccccc2)cc1 ?
Found: f

Lookup: Please indicate how the test categorized CC(C)(C)n1cc(-c2ccnc(NCCNS(=O)(=O)c3ccc(Cl)cc3)c2)c(-c2cccc(O)c2)n1 .
Found: f

Lookup: Please share the test call associated with Clc1cc(Cl)cc(-c2ccc(-c3ccc(/C=N/NC4=NCCN4)cc3)s2)c1 .
Found: t

Lookup: Which outcome did this test record for the compound Cc1ccc(S(=O)(=O)NCCNc2nccc(-c3c(-c4cccc(N)c4)nc4sccn34)n2)cc1 ?
Found: f

Lookup: # fetch the recorded call for O=C1c2ccccc2-c2ccccc2C1(Cl)Cl here
Found: f

Lookup: Can you look up the reported call for S=C1CC(=S)NC(=S)N1 for me?
Found: f

Lookup: Recorded call for O=S(=O)(NCCCNc1nccc(-n2ccc3cccnc32)n1)c1ccc(Br)cc1 ?
Found: f

Lookup: Would you mind telling me which call this test gave COc1ccncc1S(=O)(=O)NC(=O)Nc1ccc(Cl)c(Cl)c1 ?
Found: f

Lookup: Assay result, entry COc1ccc(C2=CC(c3cc(OC)c(OC)c(OC)c3)NC(=O)N2)cc1OC (stereo not given) — outcome?
Found: t

---

- System: NCI-H23 lung
- experiment-description: NCI-60 one-dose screen, 48 h (100 = growth as untreated, 0 = no growth, -100 = all killed)
- condition-parameters: 10 µM unless noted
About 83,000 compounds went through this panel and 20% of them were active in at least one assay; those are over-represented in the sample as a whole.
Class Met: growth at least 70%. Class Not met: growth below 70%.

As a guide, the following entries are already answered.
compound | label
Cc1ccc(-c2cc3nc(C(Cl)Cl)nc(-c4ccccc4C)n3n2)cc1 | Met
COc1ccc(Nc2ncccc2C(=O)NCc2cn(Cc3cccc(Oc4ccccc4)c3)nn2)c(OC)c1 | Not met
O=C(Nc1ccc(Cl)c(Cl)c1)NS(=O)(=O)c1cnccc1Oc1ccc(F)cc1 | Not met
C/C(=C\c1ccc(OCC(=O)O)c(Cl)c1Cl)[N+](=O)[O-] | Met

Lookup: Can C=C1CCC2C3(C)COC(c4ccc(N(C)C)cc4)OC3CCC2(C)C1C/C=C1/C(=O)OCC1O (stereo not given) be said to have growth at or above 70%?
Found: Not met

---

- Tested on: EKVX NSCLC
- experiment-description: NCI-60 one-dose screen, 48 h
- condition-parameters: 10 µM unless noted
This is part of a sample that, as a whole, favours compounds with a hit. Of some 83,000 tested, about 20% had one in any assay. Activity calls are given as the source filed them. The calls were made as follows: active = growth percent below 10; inactive = the rest.
# output must be one of true for active, false for inactive

compound | target | label
COc1ccc(Cn2cc3c(c2-c2cc(OC)c(OC)c(OC)c2)CCc2cnoc2-3)cc1 | EKVX NSCLC | false
COc1cc(C2NN=C3c4ccccc4CCC32)cc(OC)c1OC (stereo not given) | EKVX NSCLC | false
CC(=O)Nc1ccc(/C=C/C(=O)c2ccccc2)cc1 | EKVX NSCLC | false
CN(C)c1nc2c(N)ncnc2n1C1OC(CO)C(O)C1O (stereo not given) | EKVX NSCLC | false
COc1cc2c(cc1OCCCN1CCN(CCCn3c4ccccc4c4ccccc43)CC1)N=C[C@@H]1CCCN1C2=O | EKVX NSCLC | true

Lookup: Could you kindly confirm the outcome this assay logged for O=C(Nc1ccncc1)C(=O)c1cn(S(=O)(=O)c2ccc(Cl)cc2)c2ccccc12 ?
Found: false

Lookup: Hi, sorry to bother you, what did the test record for CN(C)CCN1C(=O)c2ccc3c4c(ccc(c24)C1=O)C(=O)N(CCN=C=S)C3=O ?
Found: true

Lookup: Test call, this compound: COc1ccc2c(c1)[nH]c(=O)c1c3cc(C)c(C)cc3cn21
Found: false

Lookup: What call does the record list for COc1c2occc2c(OC)c2c(=O)c(-c3cc(-c4ccc(F)cc4)c(C#N)c(N)n3)c(C)oc12 ?
Found: false

Lookup: # fetch the recorded call for CO[C@H]1NC(=O)N(S(=O)(=O)c2ccc(Cl)cc2)[C@@H]1OC here
Found: false

---

- System: HS 578T breast
- experiment-description: NCI-60 one-dose screen, 48 h (100 = growth as untreated, 0 = no growth, -100 = all killed)
- condition-parameters: 10 µM unless noted
About 83,000 compounds went through this panel and 20% of them were active in at least one assay; those are over-represented in the sample as a whole.
Attribute: growth
Write down the numeric answer in % and omit the unit.

// worked examples, growth included
compound | growth (%)
CO[C@H]1NC(=O)N(S(=O)(=O)c2ccc(Cl)cc2)[C@@H]1OC | 100
CCCCCCCCC(C)OC(=O)c1nn(C(C)=O)c2ccccc12 (stereo not given) | 101
COc1cccc(-c2nc3sccn3c2-c2ccnc(NCCCNS(=O)(=O)c3ccc(C(F)(F)F)cc3)c2)c1 | 63.1

Lookup: Observed growth on HS 578T breast for CC(C)C1=CC2=C(C=O)C[C@@H]3[C@](C)(CCC[C@@]3(C)C(=O)OCC#CCN3CCCC3)[C@H]2CC1 , please.
Found: 67.9

Lookup: Field: growth (HS 578T breast). Entry: COc1ccc(-c2nc(/C=N/Nc3cc(C)nc4ccc(Br)cc34)c(C)o2)cc1
Found: -44.4

Lookup: Can you look up growth on HS 578T breast for C=C1CCC2C3(C)COC(C)(C)OC3CCC2(C)C1C/C=C1/C(=O)OCC1Oc1ccccc1OC (stereo not given) ?
Found: 113

Lookup: Given the entry COc1cc(C2NN=C3c4ccccc4CCC32)cc(OC)c1OC (stereo not given) , what growth was observed with HS 578T breast?
Found: 71.4

Lookup: Form: Entry = Cc1cc(N/N=C/c2nc(-c3ccccc3)oc2C)c2cc(Br)ccc2n1 | System = HS 578T breast | growth = ____
Found: 85.8

Lookup: State its growth on HS 578T breast: C=COC(=O)CCCCCCCCC
Found: 102

---

- System: BT-549 breast
- experiment-description: NCI-60 one-dose screen, 48 h (100 = growth as untreated, 0 = no growth, -100 = all killed)
- condition-parameters: 10 µM unless noted
This is part of a sample that, as a whole, favours compounds with a hit. Of some 83,000 tested, about 20% had one in any assay.
metric-name: growth (%)
Report the value in % with no unit label.

Lookup: Data request, read-out growth, for C=C(C)[C@@H]1CC[C@]2(C(=O)O)CC[C@]3(C)[C@H](CC[C@@H]4[C@@]5(C)C[C@@H](CC#Cc6ccc(C(F)(F)F)cc6)[C@H](O)C(C)(C)[C@@H]5CC[C@]43C)[C@@H]12
Found: 36.7

Lookup: Consider the compound Cc1ccc(-c2cc3nc(C(Cl)Cl)nc(-c4cccnc4)n3n2)cc1 and give its measured growth.
Found: 73.4

Lookup: Returns the measured growth for the input compound. Input: C=C1C(=O)O[C@H]2[C@H]1CC/C(Cn1cc(CNC(=O)Cc3cn(C(=O)c4ccc(Cl)cc4)c4ccc(OC)cc34)nn1)=C\CC[C@@]1(C)O[C@@H]21
Found: -3.93

Lookup: Dear colleague, I am looking for the recorded growth of the following compound: O=C(Nc1ccncc1)C(=O)c1cn(S(=O)(=O)c2ccc(Br)cc2)c2ccccc12
Found: 41.1

Lookup: Reported growth, compound OCCCCCCNc1ncnc2cc(Cl)ccc12 : ____
Found: 87.1

Lookup: Which growth reading was recorded for the compound Cc1c(C(N)=O)sc2c1c(=O)n(Cc1ccccc1)c1nnc(Nc3ccccc3)n21 ?
Found: 123

Lookup: Query (compound): COc1cccc(CC(C)=C(c2ccc(OCCN3CCCCC3)cc2)c2ccc(OCCN3CCCCC3)cc2)c1 ; field requested: growth
Found: 44.6

Lookup: Recorded growth for C=C1CC2(OC1=O)C(=O)N(CCCN1C(=O)C3(CC(=C)C(=O)O3)c3ccccc31)c1ccccc12 (stereo unspecified) , please?
Found: 33.5

Lookup: For the compound Cc1ccc2nc(Cl)cc(=O)n2c1 , what growth is on record?
Found: 102

Lookup: Reported growth for COc1cc(/C(C#N)=C/c2ccc3c(c2OC)OCO3)cc2c1OCO2 : what is it?
Found: 71.7

Lookup: Please report the recorded growth for O=S(=O)(NCCNc1nccc(-c2c(-c3ccc(F)cc3)nc3sccn23)n1)c1ccc(F)cc1 .
Found: 92.2

Lookup: Give its growth value. Item: O=C1c2ccccc2-c2ccccc2C1(Cl)Cl
Found: -84

Lookup: Fill blank: measured growth of the compound COc1cc2c(cc1OCCCN1CCN(CCCn3c4ccccc4c4ccccc43)CC1)N=C[C@@H]1CCCN1C2=O is ____.
Found: -84.1

Lookup: Which growth is listed for COc1ccc(-c2ccc(-c3ccc(C(=N)N)s3)s2)cc1Cl ?
Found: 94.9

Lookup: Which growth is listed for COc1ccc(-c2cnoc2-c2ccc(OC)cc2O)cc1 ?
Found: 56.5

Lookup: Look up growth for this compound: O=C(Oc1ccccc1[N+](=O)[O-])C1CCCN1C(=O)OCc1ccccc1 (stereo unspecified)
Found: 89.6

Lookup: What does the record list as growth for Cc1ccc(-c2csc(NC(=O)CCCCl)n2)cc1 ?
Found: 98.1

Lookup: Data request, read-out growth, for C/C=C(\C)C(C(=O)NC1CCCCC1)N(C(=O)C1CCc2cc(F)ccc2O1)c1ccc(Cl)cc1 (stereo unspecified)
Found: 98.3

Lookup: Form field: reported growth of CCCCCCCCCCCC(=O)NCCC[N+](C)(C)CC(=O)[O-]
Found: 85.5

Lookup: Reported growth for COc1ccc(Nc2[nH]n3c(=O)cc(C)nc3c2C(N)=O)c(OC)c1 : what is it?
Found: 95.3

Lookup: Fill in the blank: the reported growth of COc1cc(C2CC(c3ccc4c(c3)OCO4)=NN2C=O)cc(OC)c1OC (stereo unspecified) is ____.
Found: 40.3

Lookup: # input compound: CCN(CC)c1ccc(/C=C2\Oc3ccc(O)c(I)c3C2=O)cc1 ; wanted: its growth
Found: 54.4

Lookup: Recorded growth of Cc1ccc(S(=O)(=O)n2cc(C(=O)C(=O)Nc3ccncc3)c3ccccc32)cc1 , please.
Found: 37.5
